Known Lowest concentration at which NF-Y binding inhibition was observed of a selection of compounds
Test system: NF-Y binding at ICB2 of Topoisomerase IIα promoter
ASSAY_REMARKS: NF-Y gel shift assay (EMSA) at ICB2
MEASURED_ATTRIBUTE: Lowest concentration at which NF-Y binding inhibition was observed

| COMPOUND | RESULT |
| --- | --- |
| CCOC(=O)c1nc(NC(=O)c2nc(NC(=O)c3nc(NC(=O)CCCOc4cc5c(cc4OC)C(=O)N4CCC[C@H]4C=N5)cn3C)cn2C)cn1C [Compound 77] | 50 µM |
| COC(=O)c1cc(NC(=O)c2cc(NC(=O)c3nc(NC(=O)CCCOc4cc5c(cc4OC)C(=O)N4CCC[C@H]4C=N5)cn3C)cn2C)cn1C [Compound 67] | 5 µM |
| COC(=O)c1cc(NC(=O)c2cc(NC(=O)CCCOc3cc4c(cc3OC)C(=O)N3CCC[C@H]3C=N4)cn2C)cn1C [Compound 23] | 5 µM |
| COC(=O)c1cc(NC(=O)c2cc(NC(=O)c3csc(NC(=O)CCCOc4cc5c(cc4OC)C(=O)N4CCC[C@H]4C=N5)n3)cn2C)cn1C [Compound 69] | 10 µM |
| CCOC(=O)c1nc(NC(=O)c2nc(NC(=O)c3cc(NC(=O)CCCOc4cc5c(cc4OC)C(=O)N4CCC[C@H]4C=N5)cn3C)cn2C)cn1C [Compound 91] | 50 µM |
| COC(=O)c1cc(NC(=O)c2csc(NC(=O)c3cc(NC(=O)CCCOc4cc5c(cc4OC)C(=O)N4CCC[C@H]4C=N5)cn3C)n2)cn1C [Compound 73] | 10 µM |
| COC(=O)c1cc(NC(=O)c2nc(NC(=O)c3cc(NC(=O)CCCOc4cc5c(cc4OC)C(=O)N4CCC[C@H]4C=N5)cn3C)cn2C)cn1C [Compound 71] | 10 µM |
